# Study target: BRM (Homo sapiens, UniProt P51531)
# Construct: In-Cell Western Screen of BRM Degradation in SW1573 Cells; endogenous in cells; host or cells: SW1573
# Sequence (P51531 whole entry): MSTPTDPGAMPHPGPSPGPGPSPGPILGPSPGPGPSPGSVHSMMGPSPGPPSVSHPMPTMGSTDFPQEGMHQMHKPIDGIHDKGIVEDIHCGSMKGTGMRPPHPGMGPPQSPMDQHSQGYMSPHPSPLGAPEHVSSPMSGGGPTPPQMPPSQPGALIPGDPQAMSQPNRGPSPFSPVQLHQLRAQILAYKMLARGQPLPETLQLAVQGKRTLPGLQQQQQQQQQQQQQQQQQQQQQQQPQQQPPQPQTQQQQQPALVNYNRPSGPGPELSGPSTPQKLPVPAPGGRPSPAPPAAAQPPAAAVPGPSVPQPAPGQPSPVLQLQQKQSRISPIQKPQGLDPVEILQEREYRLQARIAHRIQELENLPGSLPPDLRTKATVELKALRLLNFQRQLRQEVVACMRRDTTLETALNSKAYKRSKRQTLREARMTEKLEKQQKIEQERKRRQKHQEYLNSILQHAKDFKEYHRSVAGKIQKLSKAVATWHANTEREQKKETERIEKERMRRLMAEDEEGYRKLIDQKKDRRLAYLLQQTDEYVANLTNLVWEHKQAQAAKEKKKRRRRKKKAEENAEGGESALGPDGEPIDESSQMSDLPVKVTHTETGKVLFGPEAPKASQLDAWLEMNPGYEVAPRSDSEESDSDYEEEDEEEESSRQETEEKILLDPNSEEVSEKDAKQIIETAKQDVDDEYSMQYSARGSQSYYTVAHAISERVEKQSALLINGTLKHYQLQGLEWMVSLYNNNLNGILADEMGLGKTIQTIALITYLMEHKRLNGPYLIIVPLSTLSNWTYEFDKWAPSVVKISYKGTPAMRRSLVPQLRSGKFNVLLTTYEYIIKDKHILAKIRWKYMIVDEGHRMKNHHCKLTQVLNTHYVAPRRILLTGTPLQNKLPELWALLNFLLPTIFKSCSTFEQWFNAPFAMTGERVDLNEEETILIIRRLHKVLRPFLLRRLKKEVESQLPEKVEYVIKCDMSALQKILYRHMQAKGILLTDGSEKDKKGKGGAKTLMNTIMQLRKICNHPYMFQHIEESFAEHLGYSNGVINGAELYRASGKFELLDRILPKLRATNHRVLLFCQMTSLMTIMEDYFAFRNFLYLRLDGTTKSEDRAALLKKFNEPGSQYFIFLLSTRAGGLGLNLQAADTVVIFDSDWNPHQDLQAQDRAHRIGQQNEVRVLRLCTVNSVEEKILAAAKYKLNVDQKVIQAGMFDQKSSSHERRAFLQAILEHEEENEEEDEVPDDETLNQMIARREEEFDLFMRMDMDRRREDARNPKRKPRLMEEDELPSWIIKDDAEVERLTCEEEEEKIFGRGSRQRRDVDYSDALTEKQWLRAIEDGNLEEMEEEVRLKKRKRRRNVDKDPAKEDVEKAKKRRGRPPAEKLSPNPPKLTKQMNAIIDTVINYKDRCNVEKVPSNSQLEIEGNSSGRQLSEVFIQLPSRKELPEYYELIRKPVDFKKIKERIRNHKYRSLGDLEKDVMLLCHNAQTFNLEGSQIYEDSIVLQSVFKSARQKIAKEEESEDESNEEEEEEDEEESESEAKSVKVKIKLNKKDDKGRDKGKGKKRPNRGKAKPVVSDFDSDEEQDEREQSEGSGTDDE
# Protocol: In-cell Western screen of BRM degradation in SW1573 cells (Dmax and DC50)
# Format: cell-based
# Measurement context: BRM degradation, SW1573 cells; read-out: DC50
Parameter: DC50

{"Compound": "Cc1ncsc1-c1ccc([C@H](C)NC(=O)[C@@H]2C[C@@H](O)CN2C(=O)[C@@H](c2cc(N3CCN(CCN4CCC(O[C@H]5C[C@H](Oc6cc(N7C8CCC7CN(c7cc(-c9ccccc9O)nnc7N)C8)ccn6)C5)CC4)CC3)no2)C(C)C)cc1 [compound 144]", "Study target": "BRM (Homo sapiens, UniProt P51531)", "Parameter": "DC50", "Reported value": "< 2.5 nM"}
{"Compound": "Cc1ncsc1-c1ccc([C@H](C)NC(=O)[C@@H]2C[C@@H](O)CN2C(=O)[C@H](c2cc(N3CCC4(CC3)CC(CN3CCC(O[C@H]5C[C@H](Oc6cc(N7C8CCC7CN(c7cc(-c9ccccc9O)nnc7N)C8)ccn6)C5)CC3)C4)no2)C(C)C)cc1 [compound 649]", "Study target": "BRM (Homo sapiens, UniProt P51531)", "Parameter": "DC50", "Reported value": "> 30 nM"}
{"Compound": "Cc1ncsc1-c1ccc([C@H](C)NC(=O)[C@@H]2C[C@@H](O)CN2C(=O)[C@H](c2cc(OCCC3CCN(C[C@H]4C[C@H](Oc5cc(N6C7CCC6CN(c6cc(-c8ccccc8O)nnc6N)C7)ccn5)C4)CC3)no2)C(C)C)cn1 [compound 287]", "Study target": "BRM (Homo sapiens, UniProt P51531)", "Parameter": "DC50", "Reported value": "> 30 nM"}
{"Compound": "CC(C)[C@H](C(=O)N1C[C@H](O)C[C@H]1C(=O)N[C@@H](C)c1ccc(-c2scnc2CO)cc1)c1cc(OCCN2CCC(O[C@H]3C[C@H](Oc4cc(N5C6CCC5CN(c5cc(-c7ccccc7O)nnc5N)C6)ccn4)C3)CC2)no1 [compound 219]", "Study target": "BRM (Homo sapiens, UniProt P51531)", "Parameter": "DC50", "Reported value": "> 30 nM"}

Data provenance is patent US12539292B2.
